Source: the NIST ThermoML archive (doi:10.1021/je020163y)

CONDITION_PARAMETERS: Crystal; visual observation
EXPERIMENTAL_READOUT: Normal melting temperature (°C)
Numbers only, in °C.

Example compounds with recorded Normal melting temperature:
1) Cc1cc(O)c2c(=O)c3ccccc3sc2c1 [1-hydroxy3-methylthioxanthone]: 149
2) Cc1cc(O)c2c(=O)c3ccccc3sc2c1O [1,4-dihydroxy-3-methylthioxanthone]: 240
3) O=c1c2ccccc2sc2cccc(O)c12 [1-hydroxythioxanthone]: 119

Turning now to a further compound:
Asked: Answer with the recorded Normal melting temperature for the compound listed here: O=c1c2ccccc2sc2ccccc12
Given back: 209
